- methodSummary: chemical genetic growth profiling, strain panel (AID 1159580);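 also: tested at 20 µM; growth read once vehicle control cultures reached saturation at 30 °C; 1 = growth at the plate median or of vehicle wells; lower values mean less growth of the strain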
- experimentalContext: S. cerevisiae deletion strains, growth OD, locus YMR205C, strain PFK2, stronger effect = lower value
The whole screen tested about 5,500 compounds, of which about 2,000 (36%) were called active. Inconclusive results (about 18%) are left out. The list shows a part of the results.

>  <compound>
CCOC(=O)Nc1nc2ccccc2[nH]1

>  <normalized growth>
0.904

$$$$
>  <compound>
CC1OC1P(=O)(O)O (centres undefined)

>  <normalized growth>
0.962

$$$$
>  <compound>
COc1cc2occ(-c3ccccc3)c(=O)c2c(OC)c1C

>  <normalized growth>
0.932

$$$$
>  <compound>
O=C1OC2(c3ccc(O)cc3Oc3cc(O)ccc32)c2ccccc21

>  <normalized growth>
1.02

$$$$
>  <compound>
CCCCCCCCCCCCCCCC(=O)OC1C(SC)OC(C(NC(=O)C2CC(CCC)CN2C)C(C)Cl)C(O)C1O (centres undefined)

>  <normalized growth>
0.972

$$$$
>  <compound>
CC[C@H](C)C(=O)O[C@H]1CCC=C2C=C[C@H](C)C(CCC3C[C@@H](O)CC(=O)O3)[C@H]21 (some centres undefined)

>  <normalized growth>
1.01

$$$$
>  <compound>
CC(=O)OCC[C@H](C)CCC=C(C)C

>  <normalized growth>
1.01

$$$$
>  <compound>
COC(=O)C(C)c1ccc(C(=O)c2cccs2)cc1 (centres undefined)

>  <normalized growth>
1.01

$$$$
>  <compound>
COc1cc2c(cc1OC)C1Cc3ccc(OC)c(OC)c3CN1CC2 (centres undefined)

>  <normalized growth>
0.987

$$$$
>  <compound>
C[N+]1(C)C2CC(OC(=O)[C@@H](CO)c3ccccc3)CC1C1OC12 (some centres undefined)

>  <normalized growth>
0.956

$$$$
>  <compound>
O=C1C=C2C=C[C@@H]3C[C@@]2(O1)[C@H]1CCCCN31

>  <normalized growth>
0.997

$$$$
>  <compound>
Cn1c(=O)c2[nH]cnc2n(C)c1=O

>  <normalized growth>
1.04

$$$$
>  <compound>
C#CCCCCCCCCCCCC(=O)CC(O)COC(C)=O (centres undefined)

>  <normalized growth>
0.893

$$$$
>  <compound>
CC(C(=O)O)c1ccc(C(=O)c2cccs2)cc1 (centres undefined)

>  <normalized growth>
0.965

$$$$
>  <compound>
CCC(C)(C)C(=O)O[C@H]1C[C@@H](C)C=C2C=C[C@H](C)[C@H](CC[C@@H]3C[C@@H](O)CC(=O)O3)[C@H]21

>  <normalized growth>
0.978

$$$$
>  <compound>
CC(=O)OCC(OC(C)=O)C(OC(C)=O)C(OC(C)=O)C(OC(C)=O)C(COC(C)=O)OC(C)=O (centres undefined)

>  <normalized growth>
0.985

$$$$
>  <compound>
COc1cc(-c2coc3cc(OC)c(OC)c(OC)c3c2=O)cc(OC)c1OC

>  <normalized growth>
1.01

$$$$
>  <compound>
CC1=CC2C(CC1=O)C(C)=CCC2C(C)C (centres undefined)

>  <normalized growth>
0.966

$$$$
>  <compound>
C#CCCCCCCCCCCCC(O)CC(O)COC(C)=O (centres undefined)

>  <normalized growth>
0.507

$$$$
>  <compound>
COC(=O)C(O)c1ccccc1 (centres undefined)

>  <normalized growth>
1.02

$$$$
>  <compound>
NC(=O)c1cccc(N)c1

>  <normalized growth>
0.991

$$$$
>  <compound>
COc1ccc(-c2coc3cc(OC)cc(OC)c3c2=O)cc1

>  <normalized growth>
0.959

$$$$
>  <compound>
Cc1ccc(C)c(OCCCC(C)(C)C(=O)O)c1

>  <normalized growth>
0.986

$$$$
>  <compound>
Nc1nc2ncc(=O)[nH]c2c(=O)[nH]1

>  <normalized growth>
0.967

$$$$

---

- methodSummary: chemical genetic growth profiling, strain panel (AID 1159580);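 also: tested at 20 µM; growth read once vehicle control cultures reached saturation at 30 °C; 1 = growth at the plate median or of vehicle wells; lower values mean less growth of the strain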
- experimentalContext: S. cerevisiae deletion strains, growth OD, locus YAL013W, strain DEP1, stronger effect = lower value
The whole screen tested about 5,500 compounds, of which about 2,000 (36%) were called active. Another 18% or so got no clear call; they are omitted. This is one part of the list.

>  <molecule>
CCN(CC)CCOC(=O)c1ccc(N)cc1

>  <normalized growth>
0.955

$$$$
>  <molecule>
CCCCOC(=O)c1ccccc1C(=O)OCc1ccccc1

>  <normalized growth>
0.988

$$$$
>  <molecule>
CCCCCCOc1ccccc1C(N)=O

>  <normalized growth>
0.662

$$$$
>  <molecule>
O=C(c1ccc(-c2ccccc2)cc1)c1cc2cc([N+](=O)[O-])ccc2o1

>  <normalized growth>
1

$$$$
>  <molecule>
CC1(C)C2(Cl)C(Cl)C(Cl)C(Cl)(C(Cl)Cl)C1(Cl)C2Cl (configuration not stated)

>  <normalized growth>
0.98

$$$$
>  <molecule>
CCCCNc1ccc(C(=O)OCCN(C)C)cc1

>  <normalized growth>
1.01

$$$$
>  <molecule>
CC1(C)O[C@H]2[C@H](O)C[C@](O)(C(N)=O)C[C@H]2O1

>  <normalized growth>
1.01

$$$$
>  <molecule>
CC12NC(=O)NC1(C)NC(=O)N2 (configuration not stated)

>  <normalized growth>
1.04

$$$$
>  <molecule>
CCCCOC(=O)c1ccccc1C(=O)OCCCC

>  <normalized growth>
0.988

$$$$
>  <molecule>
CCCCN1CCCCC1C(=O)Nc1c(C)cccc1C (configuration not stated)

>  <normalized growth>
1.02

$$$$
>  <molecule>
CCN1C[C@]2(C)CC[C@H](O)[C@@]34C5C[C@@H]6[C@@H](OC)C[C@@](O)(C5[C@H]6O)[C@@H](CC23)C14 (some centres not stated)

>  <normalized growth>
1.01

$$$$
>  <molecule>
CCCCN(CCCC)CCCOC(=O)c1ccc(N)cc1

>  <normalized growth>
1

$$$$

---

- methodSummary: chemical genetic growth profiling, strain panel (AID 1159580);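 also: tested at 20 µM; growth read once vehicle control cultures reached saturation at 30 °C; 1 = growth at the plate median or of vehicle wells; lower values mean less growth of the strain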
- experimentalContext: S. cerevisiae deletion strains, growth OD, locus YNL298W, strain CLA4, stronger effect = lower value
In all, about 5,500 compounds went through this assay and about 2,000 (36%) were called active. Not shown: some 18% with an inconclusive outcome. The list shows a part of the results.

>  <compound>
C=C1C(C)C2C(Cc3ccccc3)NC(=O)C23OC(=O)/C=C/C(O)CCCC(C)C/C=C/C3C1O (centres undefined)

>  <normalized growth>
0.995

$$$$
>  <compound>
NC[C@@H]1CC[C@@H](N)[C@@H](O[C@H]2[C@H](O)[C@@H](O[C@H]3O[C@H](CO)[C@@H](O)[C@H](N)[C@H]3O)[C@H](N)C[C@@H]2N)O1

>  <normalized growth>
1.01

$$$$
>  <compound>
Oc1ccc2c(c1)OCC1c3cc4c(cc3OC21)OCO4 (centres undefined)

>  <normalized growth>
0.939

$$$$
>  <compound>
COc1cc([C@@H]2c3cc4c(c(O)c3C[C@H]3COC(=O)[C@@H]32)OCO4)cc(OC)c1OC

>  <normalized growth>
0.976

$$$$

---

- methodSummary: chemical genetic growth profiling, strain panel (AID 1159580);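 also: tested at 20 µM; growth read once vehicle control cultures reached saturation at 30 °C; 1 = growth at the plate median or of vehicle wells; lower values mean less growth of the strain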
- experimentalContext: S. cerevisiae deletion strains, growth OD, locus YLR085C, strain ARP6
The campaign covered roughly 5,500 compounds. About 2,000 (36%) were called active. Roughly 18% stayed inconclusive and do not appear here. Cut-off read from the data, not from the text of the source: active = normalized growth mostly below about 0.91 (no sharp cut-off); inconclusive = no clear call, values can overlap the other calls; inactive = mostly above about 0.92. This is one part of the list.
Outcome codes: active, inactive

>  <compound>
CN1c2ccccc2C(=O)NC1c1ccc([N+](=O)[O-])s1 (configuration not stated)

>  <groupLabel>
inactive

$$$$
>  <compound>
CCCc1cnc(N2CCCN(C(=S)Nc3cccnc3)CC2)nc1

>  <groupLabel>
inactive

$$$$
>  <compound>
O=[N+]([O-])c1ccc2c(c1)NC(c1ccc([N+](=O)[O-])s1)O2 (configuration not stated)

>  <groupLabel>
active

$$$$
>  <compound>
Cc1nc(-c2ccc(S(=O)(=O)N3CCN(c4ncnc5scc(-c6ccccc6)c45)CC3)s2)cs1

>  <groupLabel>
inactive

$$$$
>  <compound>
CC(=O)c1cnn(-c2ccccc2)c1C

>  <groupLabel>
inactive

$$$$
>  <compound>
N#CC(C#N)=Cc1ccc(-c2cc(C(F)(F)F)ccc2Cl)o1

>  <groupLabel>
inactive

$$$$
>  <compound>
Clc1ccc(C2=CSC3=NCCCN23)cc1

>  <groupLabel>
inactive

$$$$
>  <compound>
CSC(=NS(=O)(=O)c1ccccc1)SC

>  <groupLabel>
inactive

$$$$
>  <compound>
Cc1cc(NC(=O)c2c(-c3c(Cl)cccc3Cl)noc2C)c([N+](=O)[O-])cc1C

>  <groupLabel>
inactive

$$$$
>  <compound>
Cc1ccc(NS(C)(=O)=O)cc1N=Cc1ccc(Cl)c(Cl)c1

>  <groupLabel>
inactive

$$$$
>  <compound>
CC(C)(C)S(=O)(=O)/C(C#N)=C/N1CCCCC1

>  <groupLabel>
inactive

$$$$
>  <compound>
CCOC(=O)Cn1c(=O)c(C#N)cn(C(C)C)c1=O

>  <groupLabel>
inactive

$$$$
>  <compound>
N#Cc1c(N)oc(-c2ccco2)c1-c1ccco1

>  <groupLabel>
active

$$$$
>  <compound>
CC(C)n1cc(C#N)c(=O)n(Cc2ccccc2)c1=O

>  <groupLabel>
inactive

$$$$
>  <compound>
Cc1ccc(NC(=S)NCCO)c(C)c1

>  <groupLabel>
inactive

$$$$
>  <compound>
COc1ccccc1N=C(N)SCc1ccccc1

>  <groupLabel>
inactive

$$$$
>  <compound>
O=C(c1ccccc1)c1cc2c(cc1Br)OCCO2

>  <groupLabel>
active

$$$$
